Target: Human GPR40 (Homo sapiens, UniProt O14842)
Sequence (O14842 whole entry): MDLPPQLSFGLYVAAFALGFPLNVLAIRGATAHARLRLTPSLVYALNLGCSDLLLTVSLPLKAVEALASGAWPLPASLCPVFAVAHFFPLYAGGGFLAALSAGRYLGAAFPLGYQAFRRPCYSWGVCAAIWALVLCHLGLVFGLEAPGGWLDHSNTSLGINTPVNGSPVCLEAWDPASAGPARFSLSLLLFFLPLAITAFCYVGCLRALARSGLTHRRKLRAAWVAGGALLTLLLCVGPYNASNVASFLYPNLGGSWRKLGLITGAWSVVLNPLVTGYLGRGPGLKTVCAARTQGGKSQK
Experiment: FLIPR assay (agonist-induced calcium mobilization)
Type: cell-based
Design: expressed in transfected cells
Conditions: GPR40/CHO NFAT BLA cells
QUANTITY_NAME: EC50 (nM)

Check out these entries, answers already filled in.
Lookup: Checklist item: EC50 tested on Human GPR40 (Homo sapiens, UniProt O14842), entry Cc1cc(OCCCS(C)(=O)=O)ccc1-c1cc(COc2cc3c(cn2)[C@H]2[C@@H](C3)[C@@H]2C(=O)O)c(F)cc1C(F)(F)F , value?
Found: 5.75

Lookup: Checklist item: EC50 tested on Human GPR40 (Homo sapiens, UniProt O14842), entry CC(O)(CCOc1ccc(-c2cc(COc3cc4c(cn3)[C@H]3[C@@H](C4)[C@@H]3C(=O)O)c(F)cc2C(F)(F)F)cc1)C(F)F (stereo partly drawn) , value?
Found: 12.5

Lookup: Checklist item: EC50 tested on Human GPR40 (Homo sapiens, UniProt O14842), entry CC(C)(O)CCOc1ccc(-c2cc(COc3cc4c(cn3)[C@H]3[C@@H](C4)[C@@H]3C(=O)O)c(F)cc2C(F)(F)F)cc1F , value?
Found: 10.9

P: Cc1nc(OCCC(C)(C)O)ccc1-c1cc(COc2cc3c(cn2)[C@H]2[C@@H](C3)[C@@H]2C(=O)O)c(F)cc1C(F)(F)F
Q: CC(C)(O)CCOc1ccc(-c2cc(COc3cc4c(cn3)[C@H]3[C@@H](C4)[C@@H]3C(=O)O)c(F)cc2C(F)(F)F)cc1
R: O=C(O)[C@H]1[C@@H]2Cc3cc(OCc4cc(-c5c(F)cc(OCCC6(O)COC6)cc5F)c(C(F)(F)F)cc4F)ncc3[C@@H]21
Lookup: Put the compounds in ascending order of EC50. # output: labels, in the requested order
Found: P, R, Q

====

Molecular target: Human GPR40 (Homo sapiens, UniProt O14842)
Experiment: Inositol Phosphate Turnover (IP1) Assay 1
Assay type: cell-based
Design: expressed in transfected cells; host or cells: HEK cells stably expressing the aequorin reporter
Details: HEK cells stably expressing human GPR40, 96-well, 3H-inositol labeling, SPA beads
pEC50: −log10 of the molar value.
QUANTITY_NAME: pEC50

Lookup: # pEC50 lookup, item CC(C)(O)CCOc1ccc(-c2cc(COc3cc4c(cn3)[C@H]3[C@@H](C4)[C@@H]3C(=O)O)c(F)cc2C(F)(F)F)cc1F [Example 6]
Found: 7.83

Lookup: # pEC50 lookup, item CC(C)(O)CCOc1ncc(-c2cc(COc3cc4c(cn3)[C@H]3[C@@H](C4)[C@@H]3C(=O)O)c(F)cc2C(F)(F)F)cc1F [Example 15]
Found: 8.10

Lookup: # pEC50 lookup, item Cc1nc(OCCC(C)(C)O)ccc1-c1cc(COc2cc3c(cn2)[C@H]2[C@@H](C3)[C@@H]2C(=O)O)c(F)cc1C(F)(F)F [Example 3]
Found: 8.31

Lookup: # pEC50 lookup, item Cc1cc(OCC[C@@H](O)CO)cc(C)c1-c1cc(COc2cc3c(cn2)[C@H]2[C@@H](C3)[C@@H]2C(=O)O)c(F)cc1F [Example 25]
Found: 8.33

Lookup: # pEC50 lookup, item Cc1cc(OCCC(C)(C)O)ccc1-c1cc(COc2cc3c(cn2)[C@H]2[C@@H](C3)[C@@H]2C(=O)O)c(F)cc1C(F)F [Example 4]
Found: 8.28

Lookup: # pEC50 lookup, item CC(C)(O)CCOc1ccc(-c2cc(COc3cc4c(cn3)[C@H]3[C@@H](C4)[C@@H]3C(=O)O)c(F)cc2C(F)(F)F)cc1 [Example 5]
Found: 8.20

Lookup: # pEC50 lookup, item CC(C)(O)CCOc1ccc(-c2cc(COc3cc4c(cn3)[C@H]3[C@@H](C4)[C@@H]3C(=O)O)c(F)cc2C(F)F)cc1F [Example 11]
Found: 7.75

Lookup: # pEC50 lookup, item Cc1cc(OCCC2(O)COC2)ccc1-c1cc(COc2cc3c(cn2)[C@H]2[C@@H](C3)[C@@H]2C(=O)O)c(F)cc1C(F)(F)F [Example 14]
Found: 8.26

I: O=C(O)[C@H]1[C@@H]2Cc3cc(OCc4cc(-c5c(F)cc(OCCC6(O)COC6)cc5F)c(C(F)(F)F)cc4F)ncc3[C@@H]21 [Example 9]
II: CC(C)(O)CCOc1cc(F)c(-c2cc(COc3cc4c(cn3)[C@H]3[C@@H](C4)[C@@H]3C(=O)O)c(F)cc2C(F)(F)F)c(F)c1 [Example 10]
Lookup: Which value of pEC50 is numerically greater: that of I or that of II ? When you have decided, please share the label of that item.
Found: I
(I: 7.95, II: 7.57)

P: CC(O)(CCOc1ccc(-c2cc(COc3cc4c(cn3)[C@H]3[C@@H](C4)[C@@H]3C(=O)O)c(F)cc2C(F)(F)F)cc1)C(F)F (stereo partly shown) [Example 12]
Q: Cc1nc(OCCC(C)(O)C(F)F)ccc1-c1cc(COc2cc3c(cn2)[C@H]2[C@@H](C3)[C@@H]2C(=O)O)c(F)cc1C(F)(F)F (stereo partly shown) [Example 16]
Lookup: Which value of pEC50 is numerically greater: that of P or that of Q ? When you have decided, please share the label of that item.
Found: Q
